# MFI (solvent ratio) per entry
TESTED_SYSTEM: T1, HLA-A*02:01 (human)
T1 construct: whole, on cells; Empty class I molecule on TAP-deficient T2-A24 cells; detected with anti-HLA-A02 antibody BB7.2
TEST_DETAILS: T2-A24 MHC class I stabilization, flow cytometry, anti-HLA-A02 BB7.2-FITC, peptide 100 ug/mL
MEASUREMENT_LABEL: MFI (solvent ratio)

PLLSLPLSL [As405_9] | 2.2 ratio to solvent
SILCAKQLV [As152_9] | 1.8 ratio to solvent
KYWDFYHSLFTV [As365_12] | 1 ratio to solvent
HFGLSELVAFYV [As184_12] | 3.1 ratio to solvent
